test: reduced mouse 2C T cell binding to pMHC/ICAM-1 vesicles – MLPCN validation set, flow cytometry, LFA-1/ICAM-1 modulator project, pilot screen (AID 2523); settings: 2C mouse CD8+ T cells, at 7 µM, stronger effect = lower value;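 also: mean PE anti-B7-1 fluorescence of CD8+ cells relative to row control; 100% = QL9-loaded vesicles with DMSO vehicle in the same plate row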
Threshold check on vesicle binding response: strictly below 200% is Yes; on or above 200% is No.

Consider COc1ccc(C2C3=C(OC(C)=O)c4ccccc4C3=Nc3c2c(=O)n(C)c(=O)n3C)cc1 (configuration not stated) . Does its vesicle binding response lie strictly below 200%? Yes

Could you do the same for "COc1ccc(-c2nc(NC(C)=O)sc2-c2ccc(OC)cc2)cc1" , please? No

Could you do the same for "CC(=O)[C@H]1CC[C@H]2[C@@H]3CCC4=CC(=O)CC[C@]4(C)[C@H]3CC[C@]12C" , please? Yes

Could you do the same for CC12CN3CC(C)(CN(C1)C3c1ccc(Cl)cc1Cl)C2=O (configuration not stated) , please? No

Could you do the same for O=C(OCC1CCCN2CCCCC12)c1ccc2c(c1)OCO2 (configuration not stated) , please? No

Could you do the same for "CC(C)(C)OC(=O)NCCC(=O)Oc1ccc2ccc(=O)oc2c1" , please? No

Could you do the same for C1CCC(C(CC2CCCCN2)C2CCCCC2)CC1 (configuration not stated) , please? Yes

Could you do the same for "O=[N+]([O-])c1ccc(O)c2ncccc12" , please? Yes

Could you do the same for "O=C(O)c1cnccn1" , please? Yes

Could you do the same for "COCCNC(=O)CSc1ccc(Cl)cc1" , please? No

Could you do the same for "CCN(CC)C(=O)N1CCN(C)CC1" , please? Yes

Could you do the same for "CCN(CC)CC(=O)Nc1c(C)cccc1C" , please? No

Could you do the same for "Cc1ccc(S(=O)(=O)N[C@@H](C)C(=O)N2CCC(C(=O)N3CCC[C@H]3C(=O)O)CC2)cc1" , please? Yes

Could you do the same for "COc1cc(C)nc(-n2nc(C)cc2OC)n1" , please? No

Could you do the same for CC(C)C12CN3CC(C(C)C)(CN(C1)C3c1ccccc1)C2O (configuration not stated) , please? Yes

Could you do the same for "COc1cccc(/C=C/C(=O)c2c(O)cc(C)oc2=O)c1O" , please? No

Could you do the same for "O=C(Cc1ccccc1[N+](=O)[O-])NCCCN1CCOCC1" , please? No

Could you do the same for COc1ccc(C2OC(=O)Cc3cc(OC)c(OC)cc32)cc1 (configuration not stated) , please? Yes

Could you do the same for CC1(C)CC(CC(=O)O)(c2ccc(Cl)cc2)CCO1 (configuration not stated) , please? Yes

Could you do the same for O=CNC1CCCc2c1[nH]c1ccc(Cl)cc21 (configuration not stated) , please? Yes

Could you do the same for CCn1cc(CN2N=C(C)CC2c2ccccc2)c(C)n1 (configuration not stated) , please? Yes

====

biological target: Cell division control protein 42 homolog (Homo sapiens); assay: inhibition of fluorescent GTP binding to wildtype Cdc42 – biochemical, multiplex bead flow cytometry, Bodipy-FL-GTP, dose response (AID 1334); conditions: bead-based flow cytometry, Bodipy-FL-GTP binding to GST-Cdc42; at 100 µM (top of the series) unless noted
Entries with a potency or affinity are not part of this list.
Threshold check on fluorescence, percent of control (lower = inhibition): strictly below 40% is 1.0; on or above 40% is 0.0.

Consider "Cc1ccc(-n2c(SCc3cc(=O)n4ccsc4n3)nnc2-c2cccnc2)c(C)c1" . Does its fluorescence, percent of control (lower = inhibition) lie strictly below 40%? 0.0

Could you do the same for Cc1cc(C(=O)NNC(=S)NC(C)c2ccccc2)c2ccccc2n1 (stereo unspecified) , please? 0.0

Could you do the same for "O=c1[nH]cnc2c1C(c1ccccc1[N+](=O)[O-])c1c(nc[nH]c1=O)O2" , please? 1.0

Could you do the same for "Cc1ccc(CNCc2c(C)[nH]c(C)c2C(=O)O)cc1" , please? 0.0

Could you do the same for "COc1cccc(CNCc2sc(C(=O)O)cc2C)c1" , please? 0.0

Could you do the same for "Cc1cccc(CSc2ncccc2C(=O)O)c1" , please? 0.0

Could you do the same for "O=C(Nc1cccc(Cl)c1)N1CCN(c2ncccn2)CC1" , please? 0.0

Could you do the same for "Cn1c(N/N=C/c2ccccc2)nc2sc3c(c2c1=O)CCC3" , please? 0.0

Could you do the same for "CCOCCCNc1nc(=S)[nH]c2cc(OC)c(OC)cc12" , please? 0.0

Could you do the same for "Cc1cc(OCc2ccc(C(=O)O)o2)ccc1Cl" , please? 0.0

Could you do the same for "Cc1cc(C)n2nc(SCCOc3ccc(F)cc3)nc2n1" , please? 0.0

Could you do the same for "COc1ccc(-c2c3c(nc4sc5c(=O)[nH]c(C)nc5c24)CCC3)cc1" , please? 1.0

Could you do the same for "Cc1cc(C(F)F)n2nc(C(=O)Nc3ccc(S(=O)(=O)NC45CC6CC(CC(C6)C4)C5)cc3)nc2n1" , please? 1.0

Could you do the same for "O=C(CCl)Nc1cccn2ncnc12" , please? 1.0

Could you do the same for "CCOC(=O)N1CCN(/C=C(\C#N)c2nc3ccccc3s2)CC1" , please? 0.0

Could you do the same for "Nc1[nH]c(=S)nc2nc(-c3ccccc3)c(-c3ccccc3)nc12" , please? 1.0

Could you do the same for "CCn1c(SCC(=O)O)nnc1-c1cc2c(C)nn(-c3ccccc3)c2s1" , please? 1.0

Could you do the same for "O=C(O)C1=C[C@H](c2ccc(C(F)(F)F)cc2)C[C@H](OCc2ccc(CO)cc2)O1" , please? 1.0

Could you do the same for COc1ccc(CNC(=O)C2CC(=O)N(c3ccc(OCC(=O)N4C(C)CCCC4C)cc3)C2)cc1 (stereo unspecified) , please? 0.0

Could you do the same for "CCCc1cc(N2CCN(C(=O)c3ccco3)CC2)n2c(nc3ccccc32)c1C#N" , please? 1.0

Could you do the same for "O=C(/C=C/c1c(Cl)nc2ccccn12)N1CCCCC1" , please? 1.0

Could you do the same for "O=C(COc1ccccc1C(=O)N/N=C\c1ccc(O)c(O)c1)N/N=C/c1ccc(O)c(O)c1" , please? 1.0

Could you do the same for "O=c1c2ccc([N+](=O)[O-])cc2ncn1Cc1ccccc1C(F)(F)F" , please? 1.0

Could you do the same for "CC1(C)Cc2c(sc3c2C2=NCCN2C=N3)CS1" , please? 1.0

Could you do the same for "O=C(N/N=C(\c1ccccc1)c1ccccn1)c1cccc([N+](=O)[O-])c1" , please? 1.0

Could you do the same for "CCOC(=O)c1c(C)[nH]c(C)c1C(=O)COc1ncnc2cc([N+](=O)[O-])ccc12" , please? 1.0

Could you do the same for "O=C(O)c1cn(CCOc2ccc(Cl)cc2)c2ccccc12" , please? 0.0

Could you do the same for "Cc1ccc(NS(=O)(=O)c2cc(NC(=O)c3ccc4c(c3)NC(=O)CS4)ccc2Cl)c(C)c1" , please? 1.0

Could you do the same for "Cc1ccccc1CSc1ncccc1C(=O)O" , please? 0.0

Could you do the same for "COc1ccccc1OCc1cccc(C(=O)O)c1" , please? 0.0

Could you do the same for "COc1cc2nc(/C=C/c3ccc(N(C)C)cc3)sc2cc1SC" , please? 0.0

Could you do the same for "COc1ccccc1OCCn1cc(C(=O)O)c2ccc(Cl)cc21" , please? 0.0

Could you do the same for "NC(N)=NS(=O)(=O)c1ccc(NC(=S)NC(=O)c2ccc3c(c2)OCO3)cc1" , please? 0.0

Could you do the same for "COc1ccccc1CCNCc1ccc(C(=O)O)s1" , please? 0.0

====

For each record, write down the corresponding response.
target: Beta-2 adrenergic receptor (Homo sapiens); test: agonist-induced loss of surface beta2AR – cell-based, FAP fluorogen, flow cytometry, validation set, pilot screen (AID 504459); conditions: Am2.2-beta2AR cells, at 10 µM, stronger effect = higher value;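 also: agonist-driven loss of surface beta2AR via internalization measured by FAP dye flow cytometry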
The reply should contain only the number, in %.

Item "COc1ccc(NC2=C(Cl)C(=O)N(c3ccccc3)C2=O)c(OC)c1" has what recorded response? 1.18

Could you do the same for "Cc1ccc(S(=O)(=O)N[C@@H](C)C(=O)N2CCC(C(=O)N3CCC[C@H]3C(=O)O)CC2)cc1" , please? -2.38

Could you do the same for COCCOC(=O)C1=C(C)NC(C)=C(C(=O)OC(C)C)C1c1cccc([N+](=O)[O-])c1 (stereo unspecified) , please? -6.98

Could you do the same for "O=C(Cc1c[nH]c2ccccc12)OCCOC(=O)Cc1c[nH]c2ccccc12" , please? -3.51

Could you do the same for Cc1nc2ccccc2n1CC(O)Cn1c2ccccc2c2ccccc21 (stereo unspecified) , please? 8.04

Could you do the same for COc1ccc(OC(C)C(=O)Nc2ccccc2F)cc1 (stereo unspecified) , please? 6.77
